Where do the numbers come from? From ChEMBL document CHEMBL6074622.

measurement description: Drug level in SLC3A1-knockout mouse urine assessed as (2R)-2-amino-3-[[(2R)-2-amino-3-(1,8-diazaspiro[4.5]decan-8-yl)-3-oxo-propyl]disulfanyl]propanoic acid metabolite concentration in urine at 30 micromol/kg, iv measured after 24 hrs
Format: ADME, organism-based
settings: in vivo, dose 30 µmol/kg, read-out: Ct
quantity measured: concentration (nM)
Unit nM implied. Number only.

Record summary for N[C@@H](CSSC[C@H](N)C(=O)N1CCC2(CCCN2)CC1)C(=O)N1CCC2(CCCN2)CC1 : reported concentration = 1000

====

measurement description: Observed apparent volume of distribution during terminal phase in Slc3a1-knockout mouse by measuring (2R)-2-amino-3-[[(2R)-2-amino-3-(1,8-diazaspiro[4.5]decan-8-yl)-3-oxo-propyl]disulfanyl]propanoic acid metabolite at 150 micromol/kg, po or 30 micromol/kg, iv measured upto 24 hrs by LC-MS/MS analysis
Assay type: ADME, organism-based
settings: in vivo, dose 150 µmol/kg
quantity measured: Vz/F obs
Quick note: unit goes after the number.

N[C@@H](CSSC[C@H](N)C(=O)N1CCC2(CCCN2)CC1)C(=O)N1CCC2(CCCN2)CC1 yielded Vz/F obs of 0.0108 micromol/kg/nmol/L
